Please provide measured protein stability index for the entries that follow.
B1: SCNN1D (parent)
chain: FLGHHSFSVRPGTEATISIREDEV

# Variants of: B1
# protocol_notes: protein stability index of a GFP-peptide fusion (GPS, HEK-293T) (PSI 1-6); higher = more stable;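 further: lentivirally expressed fusions sorted by FACS into six bins by GFP to DsRed ratio, PSI derived from sequencing read proportions per bin multiplied by bin number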
# condition_summary: c terminus: a fixed tail appended
Numbers only.

Some variants with known protein stability index results, for comparison:
>>> assay_value("A15N")
2
>>> assay_value("G12N")
2.05
>>> assay_value("T16F")
2.04
>>> assay_value("R10G")
2.04
>>> assay_value("P11N")
1.98
>>> assay_value("S8R")
1.96

Could you now consider this next variant?
Q) Data request, read-out protein stability index, for G3A
A) 1.95
